These entries and their values trace back to BigSolDB 2.1.

- CONDITIONS: in n-butyl acetate, 308.2 K
ENDPOINT_NAME: solubility (mole fraction)

Which solubility (mole fraction) value is on record for C=C(C)[C@@H]1CC[C@]2(C(=O)O)CC[C@]3(C)[C@H](CC[C@@H]4[C@@]5(C)CC[C@H](O)C(C)(C)[C@@H]5CC[C@]43C)[C@@H]12 ?
0.00159

----------
- CONDITIONS: in methanol, 278.2 K
ENDPOINT_NAME: solubility (mole fraction)
The response must contain the number and no unit.

Which solubility (mole fraction) value is on record for C=C(C)[C@@H]1CC[C@]2(C(=O)O)CC[C@]3(C)[C@H](CC[C@@H]4[C@@]5(C)CC[C@H](O)C(C)(C)[C@@H]5CC[C@]43C)[C@@H]12 ?
0.00019

----------
- CONDITIONS: in n-hexanol, 298.2 K
ENDPOINT_NAME: solubility (mole fraction)
The response must contain the number and no unit.

Which solubility (mole fraction) value is on record for C=C(C)[C@@H]1CC[C@]2(C(=O)O)CC[C@]3(C)[C@H](CC[C@@H]4[C@@]5(C)CC[C@H](O)C(C)(C)[C@@H]5CC[C@]43C)[C@@H]12 ?
0.00324

----------
- CONDITIONS: in THF, 278.2 K
ENDPOINT_NAME: solubility (mole fraction)
The response must contain the number and no unit.

Which solubility (mole fraction) value is on record for C=C(C)[C@@H]1CC[C@]2(C(=O)O)CC[C@]3(C)[C@H](CC[C@@H]4[C@@]5(C)CC[C@H](O)C(C)(C)[C@@H]5CC[C@]43C)[C@@H]12 ?
0.00975

----------
- CONDITIONS: in THF, 288.2 K
ENDPOINT_NAME: solubility (mole fraction)
The response must contain the number and no unit.

Which solubility (mole fraction) value is on record for C=C(C)[C@@H]1CC[C@]2(C(=O)O)CC[C@]3(C)[C@H](CC[C@@H]4[C@@]5(C)CC[C@H](O)C(C)(C)[C@@H]5CC[C@]43C)[C@@H]12 ?
0.0136

----------
- CONDITIONS: in isopropanol, 278.2 K
ENDPOINT_NAME: solubility (mole fraction)
The response must contain the number and no unit.

Which solubility (mole fraction) value is on record for C=C(C)[C@@H]1CC[C@]2(C(=O)O)CC[C@]3(C)[C@H](CC[C@@H]4[C@@]5(C)CC[C@H](O)C(C)(C)[C@@H]5CC[C@]43C)[C@@H]12 ?
0.000765

----------
- CONDITIONS: in ethanol, 308.2 K
ENDPOINT_NAME: solubility (mole fraction)
The response must contain the number and no unit.

Which solubility (mole fraction) value is on record for C=C(C)[C@@H]1CC[C@]2(C(=O)O)CC[C@]3(C)[C@H](CC[C@@H]4[C@@]5(C)CC[C@H](O)C(C)(C)[C@@H]5CC[C@]43C)[C@@H]12 ?
0.00135

----------
- CONDITIONS: in n-butanol, 278.2 K
ENDPOINT_NAME: solubility (mole fraction)

Which solubility (mole fraction) value is on record for C=C(C)[C@@H]1CC[C@]2(C(=O)O)CC[C@]3(C)[C@H](CC[C@@H]4[C@@]5(C)CC[C@H](O)C(C)(C)[C@@H]5CC[C@]43C)[C@@H]12 ?
0.00118

----------
- CONDITIONS: in n-propanol, 278.2 K
ENDPOINT_NAME: solubility (mole fraction)
The response must contain the number and no unit.

Which solubility (mole fraction) value is on record for C=C(C)[C@@H]1CC[C@]2(C(=O)O)CC[C@]3(C)[C@H](CC[C@@H]4[C@@]5(C)CC[C@H](O)C(C)(C)[C@@H]5CC[C@]43C)[C@@H]12 ?
0.00103

----------
- CONDITIONS: in methanol, 308.2 K
ENDPOINT_NAME: solubility (mole fraction)

Which solubility (mole fraction) value is on record for C=C(C)[C@@H]1CC[C@]2(C(=O)O)CC[C@]3(C)[C@H](CC[C@@H]4[C@@]5(C)CC[C@H](O)C(C)(C)[C@@H]5CC[C@]43C)[C@@H]12 ?
0.000461

----------
- CONDITIONS: in n-hexanol, 308.2 K
ENDPOINT_NAME: solubility (mole fraction)
The response must contain the number and no unit.

Which solubility (mole fraction) value is on record for C=C(C)[C@@H]1CC[C@]2(C(=O)O)CC[C@]3(C)[C@H](CC[C@@H]4[C@@]5(C)CC[C@H](O)C(C)(C)[C@@H]5CC[C@]43C)[C@@H]12 ?
0.00378

----------
- CONDITIONS: in n-hexanol, 318.2 K
ENDPOINT_NAME: solubility (mole fraction)

Which solubility (mole fraction) value is on record for C=C(C)[C@@H]1CC[C@]2(C(=O)O)CC[C@]3(C)[C@H](CC[C@@H]4[C@@]5(C)CC[C@H](O)C(C)(C)[C@@H]5CC[C@]43C)[C@@H]12 ?
0.00454

----------
- CONDITIONS: in THF, 318.2 K
ENDPOINT_NAME: solubility (mole fraction)

Which solubility (mole fraction) value is on record for C=C(C)[C@@H]1CC[C@]2(C(=O)O)CC[C@]3(C)[C@H](CC[C@@H]4[C@@]5(C)CC[C@H](O)C(C)(C)[C@@H]5CC[C@]43C)[C@@H]12 ?
0.0388

----------
- CONDITIONS: in acetone, 288.2 K
ENDPOINT_NAME: solubility (mole fraction)
The response must contain the number and no unit.

Which solubility (mole fraction) value is on record for C=C(C)[C@@H]1CC[C@]2(C(=O)O)CC[C@]3(C)[C@H](CC[C@@H]4[C@@]5(C)CC[C@H](O)C(C)(C)[C@@H]5CC[C@]43C)[C@@H]12 ?
0.000502

----------
- CONDITIONS: in ethyl formate, 318.2 K
ENDPOINT_NAME: solubility (mole fraction)
The response must contain the number and no unit.

Which solubility (mole fraction) value is on record for C=C(C)[C@@H]1CC[C@]2(C(=O)O)CC[C@]3(C)[C@H](CC[C@@H]4[C@@]5(C)CC[C@H](O)C(C)(C)[C@@H]5CC[C@]43C)[C@@H]12 ?
0.000786

----------
- CONDITIONS: in ethyl formate, 308.2 K
ENDPOINT_NAME: solubility (mole fraction)
The response must contain the number and no unit.

Which solubility (mole fraction) value is on record for C=C(C)[C@@H]1CC[C@]2(C(=O)O)CC[C@]3(C)[C@H](CC[C@@H]4[C@@]5(C)CC[C@H](O)C(C)(C)[C@@H]5CC[C@]43C)[C@@H]12 ?
0.000548

----------
- CONDITIONS: in THF, 298.2 K
ENDPOINT_NAME: solubility (mole fraction)
The response must contain the number and no unit.

Which solubility (mole fraction) value is on record for C=C(C)[C@@H]1CC[C@]2(C(=O)O)CC[C@]3(C)[C@H](CC[C@@H]4[C@@]5(C)CC[C@H](O)C(C)(C)[C@@H]5CC[C@]43C)[C@@H]12 ?
0.0206

----------
- CONDITIONS: in ethyl acetate, 298.2 K
ENDPOINT_NAME: solubility (mole fraction)
The response must contain the number and no unit.

Which solubility (mole fraction) value is on record for C=C(C)[C@@H]1CC[C@]2(C(=O)O)CC[C@]3(C)[C@H](CC[C@@H]4[C@@]5(C)CC[C@H](O)C(C)(C)[C@@H]5CC[C@]43C)[C@@H]12 ?
0.000733

----------
- CONDITIONS: in acetone, 308.2 K
ENDPOINT_NAME: solubility (mole fraction)
The response must contain the number and no unit.

Which solubility (mole fraction) value is on record for C=C(C)[C@@H]1CC[C@]2(C(=O)O)CC[C@]3(C)[C@H](CC[C@@H]4[C@@]5(C)CC[C@H](O)C(C)(C)[C@@H]5CC[C@]43C)[C@@H]12 ?
0.000829

----------
- CONDITIONS: in ethanol, 318.2 K
ENDPOINT_NAME: solubility (mole fraction)

Which solubility (mole fraction) value is on record for C=C(C)[C@@H]1CC[C@]2(C(=O)O)CC[C@]3(C)[C@H](CC[C@@H]4[C@@]5(C)CC[C@H](O)C(C)(C)[C@@H]5CC[C@]43C)[C@@H]12 ?
0.00171

----------
- CONDITIONS: in ethanol, 298.2 K
ENDPOINT_NAME: solubility (mole fraction)

Which solubility (mole fraction) value is on record for C=C(C)[C@@H]1CC[C@]2(C(=O)O)CC[C@]3(C)[C@H](CC[C@@H]4[C@@]5(C)CC[C@H](O)C(C)(C)[C@@H]5CC[C@]43C)[C@@H]12 ?
0.00107

----------
- CONDITIONS: in n-pentanol, 298.2 K
ENDPOINT_NAME: solubility (mole fraction)

Which solubility (mole fraction) value is on record for C=C(C)[C@@H]1CC[C@]2(C(=O)O)CC[C@]3(C)[C@H](CC[C@@H]4[C@@]5(C)CC[C@H](O)C(C)(C)[C@@H]5CC[C@]43C)[C@@H]12 ?
0.00266
